# system: benzodiazepine receptors
# experiment.description: Inhibition of the binding to benzodiazepine receptors (rat brains)
# protocol.conditions: rat brains incubated 1 h 30 at 4° C.; 3H-RO-15-4788 and 3H-RO-5-4864 as tracers; Table I; read-out: BDZ receptors (inhibition of the binding to benzodiazepine receptors)
Listed here are molecules together with their documented IC50.
Phrase the answer as number then unit, nothing more needed.

Q: Consider the molecule shown here: Cc1nnc2n1-c1sc3c(c1C(c1ccccc1Cl)=NC2)CCN(C(=S)NCC(C)c1ccccc1)C3 (stereo not drawn) [Example 20] What is its recorded IC50?
Ans: 0.72 µM

Q: Consider the molecule shown here: Cc1nnc2n1-c1sc3c(c1C(c1ccccc1Cl)=NC2)CCN(C(=S)Nc1cccc(C(F)(F)F)c1)C3 [Example 13] What is its recorded IC50?
Ans: 6.25 µM

Q: Consider the molecule shown here: Cc1nnc2n1-c1sc3c(c1C(c1ccccc1Cl)=NC2)CCN(C(=O)NS(=O)(=O)c1cccnc1)C3 [Example 34] What is its recorded IC50?
Ans: 40 µM

Q: Consider the molecule shown here: Cc1nnc2n1-c1sc3c(c1C(c1ccccc1Cl)=NC2)CCN(C(=S)Nc1ccc(S(C)(=O)=O)cc1)C3 [Example 21] What is its recorded IC50?
Ans: 1.1 µM

Q: Consider the molecule shown here: C=CCNC(=S)N1CCc2c(sc3c2C(c2ccccc2Cl)=NCc2nnc(C)n2-3)C1 [Example 28] What is its recorded IC50?
Ans: 0.14 µM

Could you now look at the following molecule, please?
Q: Consider the molecule shown here: Cc1nnc2n1-c1sc3c(c1C(c1ccccc1Cl)=NC2)CCN(C(=O)Nc1ccc(Oc2ccccc2)cc1)C3 [Example 18] What is its recorded IC50?
Ans: 0.86 µM
